- target desc: Melanocortin receptor 3 (Homo sapiens)
- Sequence (P41968 whole entry): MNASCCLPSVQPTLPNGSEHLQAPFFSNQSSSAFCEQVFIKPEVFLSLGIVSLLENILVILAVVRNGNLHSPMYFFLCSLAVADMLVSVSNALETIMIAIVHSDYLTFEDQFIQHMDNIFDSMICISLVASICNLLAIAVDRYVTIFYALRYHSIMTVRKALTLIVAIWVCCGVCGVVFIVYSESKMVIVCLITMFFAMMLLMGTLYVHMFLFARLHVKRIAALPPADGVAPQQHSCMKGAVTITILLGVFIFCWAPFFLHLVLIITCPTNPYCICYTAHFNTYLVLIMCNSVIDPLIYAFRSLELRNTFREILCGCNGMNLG
- protocol notes: Stimulation of intracellular cAMP levels in HEK293 cells expressing human Melanocortin-3 receptor
recorded endpoint: ACT (%)
Answers are plain numbers, in %.

Past entries and their recorded results:
N=C(N)NCCC[C@@H]1NC(=O)[C@@H](Cc2ccc3ccccc3c2)NC(=O)[C@H](Cc2c[nH]cn2)NC(=O)CCCC(=O)NCCCC[C@H](C(N)=O)NC(=O)[C@@H](Cc2c[nH]c3ccccc23)NC1=O    0
C[C@H]1NC(=O)[C@H](Cc2c[nH]cn2)NC(=O)CCC(=O)NCCCC[C@H](C(N)=O)NC(=O)[C@@H](Cc2c[nH]c3ccccc23)NC(=O)[C@H](CCCN=C(N)N)NC1=O    0
N=C(N)NCCC[C@@H]1NC(=O)[C@@H](Cc2ccccc2)NC(=O)[C@H](Cc2c[nH]cn2)NC(=O)CCC(=O)NCCCC[C@H](C(N)=O)NC(=O)[C@@H](Cc2c[nH]c3ccccc23)NC1=O    95
N=C(N)NCCC[C@@H]1NC(=O)[C@@H](Cc2ccc3ccccc3c2)NC(=O)[C@H](Cc2c[nH]cn2)NC(=O)CCC(=O)NCCCC[C@H](C(N)=O)NC(=O)[C@@H](Cc2c[nH]c3ccccc23)NC1=O    88

Consider now this further molecule.
Specify the recorded ACT for N=C(N)NCCC[C@@H]1NC(=O)[C@@H](Cc2ccc3ccccc3c2)NC(=O)[C@H](Cc2c[nH]cn2)NC(=O)c2ccccc2C(=O)NCCCC[C@H](C(N)=O)NC(=O)[C@@H](Cc2c[nH]c3ccccc23)NC1=O , system: Melanocortin receptor 3 (Homo sapiens). 36

----------
- target desc: Melanocortin receptor 4 (Homo sapiens, UniProt P32245)
- Sequence (P32245 whole entry): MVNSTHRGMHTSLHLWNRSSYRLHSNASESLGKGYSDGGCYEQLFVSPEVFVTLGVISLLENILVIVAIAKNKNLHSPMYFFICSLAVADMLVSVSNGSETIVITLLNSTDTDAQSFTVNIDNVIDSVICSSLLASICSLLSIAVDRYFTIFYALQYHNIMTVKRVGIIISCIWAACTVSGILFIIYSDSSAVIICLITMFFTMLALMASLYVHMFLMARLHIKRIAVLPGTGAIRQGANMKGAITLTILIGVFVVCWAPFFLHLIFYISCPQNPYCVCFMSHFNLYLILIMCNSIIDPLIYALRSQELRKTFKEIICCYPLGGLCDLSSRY
- protocol notes: Inhibition of binding to human Melanocortin-4 receptor (hMC4R)
Consider the following compounds; for each one, report its pEC50.
Answers are plain numbers, as −log10 of the molar value.

C[C@@H]1NC(=O)CCC(=O)NCCCC[C@@H](C(N)=O)NC(=O)[C@H](Cc2c[nH]c3ccccc23)NC(=O)[C@H](CCCN=C(N)N)NC(=O)[C@@H](Cc2ccccc2)NC1=O    7.66

Give pEC50 for all compounds that follow.
1. N=C(N)NCCC[C@@H]1NC(=O)[C@@H](Cc2ccccc2)NC(=O)[C@H](Cc2c[nH]cn2)NC(=O)CCCC(=O)NCCCC[C@@H](C(N)=O)NC(=O)[C@H](Cc2c[nH]c3ccccc23)NC1=O
2. N=C(N)NCCC[C@@H]1NC(=O)[C@@H](Cc2ccccc2)NC(=O)[C@@H]2CCCN2C(=O)CCC(=O)NCCCC[C@@H](C(N)=O)NC(=O)[C@H](Cc2c[nH]c3ccccc23)NC1=O

1. 7.30
2. 5.64

----------
- target desc: UniProt P33032
- protocol notes: Binding affinity for human melanocortin 5 receptor (hMC5R) expressed in HEK293 cells
- Assay type: cell-based
- experimental setup: hek293
recorded endpoint: pKi
Numbers only, as −log10 of the molar value.

Enter recorded pKi with UniProt P33032 for N=C(N)NCCC[C@@H]1NC(=O)[C@@H](Cc2ccccc2)NC(=O)[C@@H]2CCCN2C(=O)CCC(=O)NCCCC[C@@H](C(N)=O)NC(=O)[C@H](Cc2c[nH]c3ccccc23)NC1=O here. 6.00

----------
Provide the recorded pEC50 for the entries that follow.
- target desc: Melanocortin receptor 5 (Homo sapiens, UniProt P33032)
- Sequence (P33032 whole entry): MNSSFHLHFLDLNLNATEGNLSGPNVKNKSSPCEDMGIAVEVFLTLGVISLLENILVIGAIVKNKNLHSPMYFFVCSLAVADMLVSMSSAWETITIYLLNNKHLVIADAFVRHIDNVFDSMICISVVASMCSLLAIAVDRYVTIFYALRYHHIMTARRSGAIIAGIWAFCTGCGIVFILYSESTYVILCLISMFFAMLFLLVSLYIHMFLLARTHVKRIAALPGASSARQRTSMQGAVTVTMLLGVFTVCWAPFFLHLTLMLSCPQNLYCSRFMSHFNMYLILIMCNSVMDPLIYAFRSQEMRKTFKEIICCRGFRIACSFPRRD
- protocol notes: Effective concentration against human melanocortin 5 receptor (hMC5R) in HEK293 cells
- Type: cell-based
One number for each entry, as −log10 of the molar value.

N=C(N)NCCC[C@@H]1NC(=O)[C@@H](Cc2ccc3ccccc3c2)NC(=O)[C@H](Cc2cnc[nH]2)NC(=O)CCCC(=O)NCCCC[C@@H](C(N)=O)NC(=O)[C@H](Cc2c[nH]c3ccccc23)NC1=O    9.00

Attention now turns to another entry.
Item N=C(N)NCCC[C@@H]1NC(=O)[C@@H](Cc2ccccc2)NC(=O)[C@H](Cc2c[nH]cn2)NC(=O)CCC(=O)NCCCC[C@@H](C(N)=O)NC(=O)[C@H](Cc2c[nH]c3ccccc23)NC1=O : provide pEC50 6.25
